Assay: chemical genetic growth profiling, strain panel (AID 1159580);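 further: tested at 20 µM; growth read once vehicle control cultures reached saturation at 30 °C; 1 = growth at the plate median or of vehicle wells; lower values mean less growth of the strain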
Conditions: S. cerevisiae deletion strains, growth OD, locus YOR231W, strain MKK1, active compounds read low
In all, about 5,500 compounds went through this assay and about 2,000 (36%) were called active. Another 18% or so got no clear call; they are omitted. This is one part of the list.

{"columns": ["Compound", "normalized growth"],
 "data": [
  ["COc1cc(O)cc(O)c1C(C)=O", 0.985],
  ["COc1cc2ccc(=O)oc2c2ccoc12", 0.991],
  ["COc1ccc2c(=O)c(CC(=O)O)coc2c1", 1],
  ["OC[C@@H](O)C(O[C@@H]1O[C@H](CO)[C@H](O)[C@H](O)[C@H]1O)[C@H](O)[C@@H](O)CO (some centres undefined)", 0.976]
]}
